Reference for the values: patent US20210269542A1

- assay target: T1, cynomolgus monkey GITR expressed on HT1080 cells (cynomolgus monkey)
- T1 chain: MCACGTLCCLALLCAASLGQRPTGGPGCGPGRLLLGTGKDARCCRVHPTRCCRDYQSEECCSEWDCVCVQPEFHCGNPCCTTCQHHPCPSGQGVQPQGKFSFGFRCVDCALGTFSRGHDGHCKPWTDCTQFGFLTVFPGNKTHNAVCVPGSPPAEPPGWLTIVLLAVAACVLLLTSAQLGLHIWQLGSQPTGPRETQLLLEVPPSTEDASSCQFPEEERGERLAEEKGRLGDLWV
- method summary: cell-based or functional assay
reported endpoint: EC50 in cynomolgus HT1080 (IL-8 induction) (nM)
Please state the figure in nM; there is no need to write the unit.

binder | value reported
ABP17 (antibody, human IgG1, kappa, N297A, V domains shown) VH: QVQLVQSGAEVKKPGSSVKVSCKASGGTFVRYAISWVRQAPGQGLEWMGGIIPIFGEAQYAQRFQGRVTITADESTSTAYMELSSLRSEDTAVYYCAREGYYYGALPYWGQGTLVTVSS VL: EIVLTQSPATLSLSPGERATLSCRASQSVSSYLAWYQQKPGQAPRLLIYDASNRATGIPARFSGSGSGTDFTLTISSLEPEDFAVYYCQQHSVFPPTFGGGTKVEIKR | 8.4
trimeric human GITR ligand (ligand, UniProt Q9UNG2 50-177, looked up) QLETAKEPCMAKFGPLPSKWQMASSEPPCVNKVSDWKLEILQNGLYLIYGQVAPNANYNDVAPFEVRLYKNKDMIQTLTNKSKIQNVGGTYELHVGDTIDLIFNSEHQVLKNNTYWGIILLANPQFIS | 0.2

Reported EC50 in cynomolgus HT1080 (IL-8 induction) for ABP18 (antibody, human IgG1, kappa, N297A, V domains shown) VH: QVQLVQSGAEVKKPGSSVKVSCKASGGTFVRYAISWVRQAPGQGLEWMGGIIPIFGEAQYAQKFRGRATITADESTSTAYMELSSLRSEDTAVYYCAREGYYYGALPYWGQGTLVTVSS VL: EIVLTQSPATLSLSPGERATLSCRASQSVSSYLAWYQQKPGQAPRLLIYDASNRATGIPARFSGSGSGTDFTLTISSLEPEDFAVYYCQQHSVFPPTFGGGTKVEIKR was 13.2
